Answer each item with its documented CC50 at 72 h.
assay-protocol: Cytotoxicity against african green monkey Vero cells after 72 hrs by resazurin assay
Type: cell-based
settings: chlorocebus sabaeus
Answers are plain numbers, in µg/mL.

Please look at the items below and tell me CC50 at 72 h for each one, in order.
1. COc1cc(OCCN2CCCCC2)c2c(c1)C(C)(C)[C@H](c1ccccc1)[C@H]2c1ccccc1 (relative stereo)
2. COc1cc(OCCN2CCCCCC2)c2c(c1)C(C)(C)[C@H](c1ccccc1)[C@H]2c1c(OC)ccc2ccccc12 (relative stereo)
3. COc1cc(OCCN2CCCCC2)c2c(c1)C(C)(C)[C@H](c1ccccc1)[C@H]2c1c(OC)ccc2ccccc12 (relative stereo)

1. 2.41
2. 24
3. 5.52

====

assay-protocol: Cytotoxicity against african green monkey Vero cells after 72 hrs by resazurin assay
Format: cell-based
settings: chlorocebus sabaeus
readout-label: CC50 at 72 h (µg/mL)
Numbers only, in µg/mL.

compound | readout-label | data-value
COc1cc(OCCN2CCCCCC2)c2c(c1)C(C)(C)[C@H](c1ccccc1)[C@H]2c1ccccc1 (relative stereo) | CC50 at 72 h | 8.11
CO[C@H]1/C=C/O[C@@]2(C)Oc3c(C)c(O)c4c(O)c(cc(O)c4c3C2=O)NC(=O)/C(C)=C\C=C\[C@H](C)[C@H](O)[C@@H](C)[C@@H](O)[C@@H](C)[C@H](OC(C)=O)[C@@H]1C [RIFAMYCIN] | CC50 at 72 h | 62.5
CCN(CC)CCOc1cc(OC)cc2c1[C@H](c1ccccc1)[C@@H](c1ccccc1)C2(C)C (relative stereo) | CC50 at 72 h | 3.74

Return CC50 at 72 h for the following compound: CC[C@@H](CO)NCCN[C@@H](CC)CO [ETHAMBUTOL]
38.5

====

assay-protocol: Lipophilicity, log P of the compound
Assay type: physicochemical
settings: octanol/water
readout-label: logP

# example entries with known answers
compound | data-value
CCN(CC)CCOc1cc(OC)cc2c1[C@H](c1ccccc1)[C@@H](c1ccccc1)C2(C)C (relative stereo) | 7.19
COc1cc(OCCN2CCOCC2)c2c(c1)C(C)(C)[C@H](c1ccccc1)[C@H]2c1ccccc1 (relative stereo) | 6.11
COc1cc(OCCCN(C)C)c2c(c1)C(C)(C)[C@H](c1ccccc1)[C@H]2c1ccccc1 (relative stereo) | 6.62
COc1cc(OCCN2CCCCCC2)c2c(c1)C(C)(C)[C@H](c1ccccc1)[C@H]2c1c(OC)ccc2ccccc12 (relative stereo) | 8.53
COc1cc(OCCN2CCCCCC2)c2c(c1)C(C)(C)[C@H](c1ccccc1)[C@H]2c1ccccc1 (relative stereo) | 7.66
COc1cc(OCCN2CCCC2)c2c(c1)C(C)(C)[C@H](c1ccccc1)[C@H]2c1ccccc1 (relative stereo) | 6.83

Could you now consider this next compound?
Note logP for the compound shown: COc1cc(OCCN2CCCCC2)c2c(c1)C(C)(C)[C@H](c1ccccc1)[C@H]2c1ccccc1 (relative stereo)
6.57

====

Kindly state logP for each of the entries shown.
assay-protocol: Lipophilicity, log P of the compound
Assay type: physicochemical
settings: octanol/water
One number for each entry.

compound | logP
CO[C@H]1/C=C/O[C@@]2(C)Oc3c(C)c(O)c4c(O)c(cc(O)c4c3C2=O)NC(=O)/C(C)=C\C=C\[C@H](C)[C@H](O)[C@@H](C)[C@@H](O)[C@@H](C)[C@H](OC(C)=O)[C@@H]1C [RIFAMYCIN] | 3.71
COc1cc(OCCN(C)C)c2c(c1)C(C)(C)[C@H](c1ccccc1)[C@H]2c1ccccc1 (relative stereo) | 7.24
COc1cc(OCCN(C(C)C)C(C)C)c2c(c1)C(C)(C)[C@H](c1ccccc1)[C@H]2c1ccccc1 (relative stereo) | 7.82
CC[C@@H](CO)NCCN[C@@H](CC)CO [ETHAMBUTOL] | 0.14

Now take the following compound into account.
Give a short answer stating reported logP for COc1cc(OCCN2CCCCC2)c2c(c1)C(C)(C)[C@H](c1ccccc1)[C@H]2c1c(OC)ccc2ccccc12 (relative stereo) .
8.11

====

assay-protocol: Cytotoxicity against african green monkey Vero cells after 72 hrs by resazurin assay
Assay type: cell-based
settings: chlorocebus sabaeus
Consider the following compounds; for each one, report its CC50 at 72 h.

compound | CC50 at 72 h
COc1cc(OCCCN(C)C)c2c(c1)C(C)(C)[C@H](c1ccccc1)[C@H]2c1ccccc1 (relative stereo) | 4.59 µg/mL
COc1cc(OCCN2CCCC2)c2c(c1)C(C)(C)[C@H](c1ccccc1)[C@H]2c1ccccc1 (relative stereo) | 7.49 µg/mL
COc1cc(OCCN(C)C)c2c(c1)C(C)(C)[C@H](c1ccccc1)[C@H]2c1ccccc1 (relative stereo) | 2.96 µg/mL
COc1cc(OCCN(C(C)C)C(C)C)c2c(c1)C(C)(C)[C@H](c1ccccc1)[C@H]2c1ccccc1 (relative stereo) | 49.2 µg/mL

Entry COc1cc(OCCN2CCOCC2)c2c(c1)C(C)(C)[C@H](c1ccccc1)[C@H]2c1ccccc1 (relative stereo) needs its CC50 at 72 h filled in; supply it.
17.5 µg/mL
